test system: HaCaT; experiment: Cytotoxicity against human HaCaT cells assessed as lactate dehydrogenase release at 25 ug/ml after 6 hrs by ELISA; format: functional
Some compounds, each annotated with its measured Activity.

{"compound": "C=C1C(=O)O[C@H](C2=C(C)[C@@H](O)CC2=O)[C@@H]1CCC(C)=O", "Activity": "11%"}
{"compound": "C=C1C(=O)O[C@H](C2=C(C)[C@@H](OC)CC2=O)[C@@H]1CCC(C)=O", "Activity": "7%"}
{"compound": "C=C1C(=O)O[C@H](C2=C(C)C(O)CC2=O)[C@@H]1CCC(C)=O (mixture of isomers)", "Activity": "3%"}

Then there is this compound:
For this compound ( C=C1C(=O)O[C@H](C2=C(C)C(OC)CC2=O)[C@@H]1[C@@H](O)CC(C)=O (some centres undefined) ), measured Activity is 5%

* * *

A collection of compounds and their measured Activity
tested on: HaCaT; test: Cytotoxicity against human HaCaT cells assessed as lactate dehydrogenase release at 5 ug/ml after 6 hrs by ELISA; type: functional
A number alone suffices; assume %.

Use these answered entries as a reference point.
{"compound": "C=C1C(=O)O[C@H](C2=C(C)C(OC)CC2=O)[C@@H]1[C@@H](O)CC(C)=O (some centres undefined)", "assay_target": "HaCaT", "Activity [%]": 4}
{"compound": "C=C1C(=O)O[C@H](C2=C(C)[C@@H](O)CC2=O)[C@@H]1CCC(C)=O", "assay_target": "HaCaT", "Activity [%]": 4}
{"compound": "C=C1C(=O)O[C@H](C2=C(C)[C@@H](OC)CC2=O)[C@@H]1CCC(C)=O", "assay_target": "HaCaT", "Activity [%]": 7}

So, C=C1C(=O)O[C@H](C2=C(C)C(O)CC2=O)[C@@H]1CCC(C)=O (mixture of isomers) ? Its Activity was 2

The reported measurements were obtained from ChEMBL document CHEMBL1153773.
